- TEST TARGET: T1, human IL-15Rα (human, UniProt Q13261 31-205, limits assumed)
- T1 construct: also called hIL-15Rα; IL-15 receptor alpha
- T1 sequence (Q13261 31-205 limits assumed): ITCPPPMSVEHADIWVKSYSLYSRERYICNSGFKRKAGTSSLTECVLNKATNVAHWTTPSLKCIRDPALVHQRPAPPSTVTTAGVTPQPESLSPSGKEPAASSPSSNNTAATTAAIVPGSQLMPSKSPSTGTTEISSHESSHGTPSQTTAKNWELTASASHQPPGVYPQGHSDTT
- ASSAY METHOD TEXT: SPR, steady state
MEASURED METRIC: Kd (nM)

Answered examples (2):
hIL-15 V49R/D30E (ligand) NWVNVISDLKKIEDLIQSMHIDATLYTESEVHPSCKVTAMKCFLLELQRISLESGDASIHDTVENLIILANNSLSSNGNVTESGCKECEELEEKNIKEFLQSFVHIVQMFINTGGGGSGHHHHHHHHGGGLNDIFEAQKIEWHE
124
hIL-15 V49R/K10E (ligand) NWVNVISDLEKIEDLIQSMHIDATLYTESDVHPSCKVTAMKCFLLELQRISLESGDASIHDTVENLIILANNSLSSNGNVTESGCKECEELEEKNIKEFLQSFVHIVQMFINTGGGGSGHHHHHHHHGGGLNDIFEAQKIEWHE
126

[I] hIL-15 V49R/I68E (ligand) NWVNVISDLKKIEDLIQSMHIDATLYTESDVHPSCKVTAMKCFLLELQRISLESGDASIHDTVENLIELANNSLSSNGNVTESGCKECEELEEKNIKEFLQSFVHIVQMFINTGGGGSGHHHHHHHHGGGLNDIFEAQKIEWHE
[II] hIL-15 V49R/K11A (ligand) NWVNVISDLKAIEDLIQSMHIDATLYTESDVHPSCKVTAMKCFLLELQRISLESGDASIHDTVENLIILANNSLSSNGNVTESGCKECEELEEKNIKEFLQSFVHIVQMFINTGGGGSGHHHHHHHHGGGLNDIFEAQKIEWHE
Request: Lab log: flag the item ( I or II ) with the smaller Kd figure. Give the label of your selection.
Result: I

Provenance of the data: patent US20210324028A1
